These entries and their values trace back to patent US20030091584A1.

Molecular target: T1, RSV F glycoprotein (NUF4) (respiratory syncytial virus)
T1 chain 1: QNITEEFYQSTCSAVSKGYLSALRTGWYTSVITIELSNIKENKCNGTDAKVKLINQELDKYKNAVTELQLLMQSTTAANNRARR
T1 chain 2: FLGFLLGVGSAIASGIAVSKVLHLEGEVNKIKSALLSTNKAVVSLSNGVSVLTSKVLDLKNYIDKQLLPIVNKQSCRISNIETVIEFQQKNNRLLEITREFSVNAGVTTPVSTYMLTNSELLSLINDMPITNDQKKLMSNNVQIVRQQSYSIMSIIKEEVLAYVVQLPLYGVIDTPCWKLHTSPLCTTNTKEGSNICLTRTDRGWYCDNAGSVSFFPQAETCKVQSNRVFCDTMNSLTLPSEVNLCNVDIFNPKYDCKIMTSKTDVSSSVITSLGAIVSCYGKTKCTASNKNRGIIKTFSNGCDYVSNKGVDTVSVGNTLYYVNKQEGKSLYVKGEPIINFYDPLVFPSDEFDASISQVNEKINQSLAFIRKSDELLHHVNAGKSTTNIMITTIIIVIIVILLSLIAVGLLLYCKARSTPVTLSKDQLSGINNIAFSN
Assay: BIAcore, mAb vs NUF4 (2:1)
quantity: Kd (nM)
Give bare numbers, in nM.

INSERT INTO results (binder, recorded_value) VALUES
  ('P11d4 (monoclonal antibody) (antibody, V domains shown, mAb with framework and constant regions of SYNAGIS) VH: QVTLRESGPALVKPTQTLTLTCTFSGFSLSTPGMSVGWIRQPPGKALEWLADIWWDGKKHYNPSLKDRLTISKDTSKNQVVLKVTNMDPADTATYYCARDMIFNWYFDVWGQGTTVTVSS VL: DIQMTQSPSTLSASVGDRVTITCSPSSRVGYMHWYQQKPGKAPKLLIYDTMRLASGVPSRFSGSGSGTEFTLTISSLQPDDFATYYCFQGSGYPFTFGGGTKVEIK', 8.55),
  ('A13c4 (monoclonal antibody) (antibody, V domains shown, mAb with framework and constant regions of SYNAGIS) VH: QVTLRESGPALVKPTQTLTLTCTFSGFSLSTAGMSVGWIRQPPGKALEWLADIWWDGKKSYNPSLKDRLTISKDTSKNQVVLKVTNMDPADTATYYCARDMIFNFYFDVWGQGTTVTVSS VL: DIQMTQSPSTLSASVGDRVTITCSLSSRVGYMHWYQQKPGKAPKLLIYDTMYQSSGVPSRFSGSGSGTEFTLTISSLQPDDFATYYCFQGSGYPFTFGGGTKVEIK', 0.7);

Fill in reported Kd for this entry: SYNAGIS® (monoclonal antibody) (antibody, V domains shown, also called SYNAGIS ®/SYNAGIS ® (HC/LC)) VH: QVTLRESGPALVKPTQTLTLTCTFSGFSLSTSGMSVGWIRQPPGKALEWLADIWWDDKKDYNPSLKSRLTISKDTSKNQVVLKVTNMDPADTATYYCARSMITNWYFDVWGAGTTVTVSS VL: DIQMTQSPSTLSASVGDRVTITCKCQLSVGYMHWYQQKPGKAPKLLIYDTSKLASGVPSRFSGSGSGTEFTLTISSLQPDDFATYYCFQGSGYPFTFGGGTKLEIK
312
